test system: 227483-062-R1-J1-PDC complex spheroids with HUVEC/MSC, viability; test: Anticancer human tumor 227483-062-R1-J1-PDC patient-derived pancreatic carcinoma cell line growth inhibition [CLK]; conditions: second compound 0.0316 µM; first compound 0.1 µM; stronger effect = lower value;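 further: spheroids exposed to compounds for seven days before readout; percent of DMSO vehicle control luminescence as 100% viability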
property-measured: viability, T/C (%)

>>> numeric_result("CC(Nc1ccc2c(c1)OCCn1cc(N3C(=O)OCC3C(F)F)nc1-2)C(N)=O (stereo not given) + CNC(=O)c1ccc(Nc2nc(OC3CCCC3)c3c(-c4ccc5nc(C)oc5c4)c[nH]c3n2)c(OC)c1")
82.3
>>> numeric_result("CC1COCCN1c1cc(C2(S(C)(=N)=O)CC2)nc(-c2ccnc3[nH]ccc23)n1 (stereo not given) + CNC(=O)c1ccc(Nc2nc(OC3CCCC3)c3c(-c4ccc5nc(C)oc5c4)c[nH]c3n2)c(OC)c1")
105
>>> numeric_result("CC1(C)CCC(CN2CCN(c3ccc(C(=O)NS(=O)(=O)c4ccc(NCC5CCOCC5)c([N+](=O)[O-])c4)c(Oc4cnc5[nH]ccc5c4)c3)CC2)=C(c2ccc(Cl)cc2)C1 + CNC(=O)c1ccc(Nc2nc(OC3CCCC3)c3c(-c4ccc5nc(C)oc5c4)c[nH]c3n2)c(OC)c1")
101
>>> numeric_result("CCCS(=O)(=O)Nc1ccc(F)c(C(=O)c2c[nH]c3ncc(-c4ccc(Cl)cc4)cc23)c1F + CN1CCN(c2cc(C(=O)Nc3cc4cc(-c5cnn(C)c5)ccc4cn3)ccn2)CC1")
98
>>> numeric_result("O=c1[nH]cc(F)c(=O)[nH]1 + CN1CCN(c2cc(C(=O)Nc3cc4cc(-c5cnn(C)c5)ccc4cn3)ccn2)CC1")
117
>>> numeric_result("Cn1ncnc1[C@H]1c2n[nH]c(=O)c3cc(F)cc(c23)N[C@@H]1c1ccc(F)cc1 + CN1CCN(c2cc(C(=O)Nc3cc4cc(-c5cnn(C)c5)ccc4cn3)ccn2)CC1")
92.3
>>> numeric_result("C=CC(=O)N1CCN(c2nc(=O)n(-c3c(C)ccnc3C(C)C)c3nc(-c4c(O)cccc4F)c(F)cc23)C(C)C1 (stereo not given) + CNC(=O)c1ccc(Nc2nc(OC3CCCC3)c3c(-c4ccc5nc(C)oc5c4)c[nH]c3n2)c(OC)c1")
92
>>> numeric_result("COc1cccc2c1C(=O)c1c(O)c3c(c(O)c1C2=O)CC(O)(C(=O)CO)CC3OC1CC(N)C(O)C(C)O1 (stereo not given) + CNC(=O)c1ccc(Nc2nc(OC3CCCC3)c3c(-c4ccc5nc(C)oc5c4)c[nH]c3n2)c(OC)c1")
91.2
>>> numeric_result("CC1COCCN1c1cc(C2(S(C)(=N)=O)CC2)nc(-c2ccnc3[nH]ccc23)n1 (stereo not given) + CN1CCN(c2cc(C(=O)Nc3cc4cc(-c5cnn(C)c5)ccc4cn3)ccn2)CC1")
98.1
>>> numeric_result("CC1(C)CCC(CN2CCN(c3ccc(C(=O)NS(=O)(=O)c4ccc(NCC5CCOCC5)c([N+](=O)[O-])c4)c(Oc4cnc5[nH]ccc5c4)c3)CC2)=C(c2ccc(Cl)cc2)C1 + CN1CCN(c2cc(C(=O)Nc3cc4cc(-c5cnn(C)c5)ccc4cn3)ccn2)CC1")
96.5
